Test summary: Mean residence time in ICR mouse at 5 mg/kg, iv measured up to 8 hrs by LC-MS/MS analysis
Type: ADME, organism-based
Condition set: in vivo

{"Smiles notation": "Nc1n[nH]c2cccc(C#Cc3cccc(NC(=O)c4ccc(N5CCOCC5)c(C(F)(F)F)c4)c3)c12", "MRT / h": 4.7}

* * *

Test summary: Volume of distribution at steady state in ICR mouse at 5 mg/kg, iv measured up to 8 hrs by LC-MS/MS analysis
Format: ADME, organism-based
Condition set: in vivo, read-out: Vdss

{"Smiles notation": "Nc1n[nH]c2cccc(C#Cc3cccc(NC(=O)c4ccc(N5CCOCC5)c(C(F)(F)F)c4)c3)c12", "Vd (L/kg)": 1.4}

All figures here come from ChEMBL document CHEMBL4765455.
